tested on: MDA-MB-435; test: NCI tumour cell line growth inhibition, 48 h
Examples of molecules with documented TGI follow.
endpointName: TGI

INSERT INTO assay_data (molecule, endpointname, endpointvalue) VALUES
  ('CC1=C2C(=O)OCC23C=COC3(C)O1 (stereo not given)', 'TGI', '53.3 µM'),
  ('NS(=O)(=O)c1ccc(NNc2c3ccccc3nc3ccccc23)cc1', 'TGI', '17 µM'),
  ('COC(=O)c1ccc(N=NN(C)COc2ccc(C#N)cc2)cc1', 'TGI', '> 100 µM'),
  ('CC1(C)CC[C@]2(C(=O)O)CC[C@]3(C)C(=CC[C@@H]4[C@@]5(C)C[C@H](O)[C@H](O)[C@@](C)(CO)C5=CC[C@]43C)[C@@H]2C1', 'TGI', '> 100 µM'),
  ('Nc1nc(N)c2c(n1)NC(c1ccccc1)CC(/C=C/c1ccc(Cl)cc1)=N2 (stereo not given)', 'TGI', '21.1 µM'),
  ('O=C(Cn1cc(-c2ccccc2)nn1)NC1CCCC1', 'TGI', '> 100 µM'),
  ('CC(=O)OC1CC(O)CC2=CCC3C4CCC(C(C)(O)C(O)CC5COC(=O)C5C)C4(C)CCC3C21C (stereo not given)', 'TGI', '> 25 µM'),
  ('CCOP(=O)(OCC)C1CC(O)CN1OC(=O)C(C)(C)C (stereo not given)', 'TGI', '> 100 µM'),
  ('O=[N+]([O-])c1ccc2c(c1)c(N=NC(=S)NC1CCCCC1)c(O)n2CN1CCOCC1', 'TGI', '20 µM'),
  ('CCOC(=O)n1[nH]c(=O)n(-c2ccccc2)c1=O', 'TGI', '> 100 µM'),
  ('O=C1c2cccnc2S(=O)N1Cc1ccccc1 (stereo not given)', 'TGI', '> 100 µM'),
  ('Clc1cc(Cl)c(Cl)c(-c2nc(-c3cccnc3)cs2)c1', 'TGI', '29.2 µM'),
  ('Nc1ccccc1N/C(=C\C(=O)C(Cl)(Cl)Cl)c1ccccc1', 'TGI', '> 100 µM'),
  ('O=S(=O)(N=S(c1ccc(Cl)cc1)c1ccc(Cl)cc1)c1ccccc1', 'TGI', '> 100 µM'),
  ('Cc1cc(C)c(O)c(Cc2cccc(Cc3cc(C)cc(C)c3O)c2O)c1', 'TGI', '> 100 µM'),
  ('C=C1C(=O)O[C@@H]2C(=O)[C@@H](C)[C@@H]3C=CC(=O)[C@@]3(C)[C@@H](OC(=O)/C(C)=C\C)[C@H]12', 'TGI', '3.69 µM'),
  ('CCN(CC)CCOc1ccc(/C(=C(\C)Cc2ccc(OC)cc2)c2ccc(OC(=O)NCc3ccccc3)cc2)cc1', 'TGI', '3.97 µM'),
  ('N#CC(=S)Nc1ccc(Cl)c(Cl)c1', 'TGI', '> 70.5 µM'),
  ('CN(C)CCn1c(=O)c2ccc3c4c(nn3CCN(C)C)c3cc(N)ccc3n(c1=O)c24', 'TGI', '0.0654 µM'),
  ('Cc1cn(C2CC(O)C(Cn3cc(Cn4ncc(=O)[nH]c4=O)nn3)O2)c(=O)[nH]c1=O (stereo not given)', 'TGI', '> 100 µM'),
  ('O=C1CCCC2=C(N1)C(=O)C=CC2=O', 'TGI', '32.7 µM'),
  ('COC1O[C@@H]2CCN3C(=O)[C@@H](OC(=O)c4ccc([N+](=O)[O-])cc4)[C@H]1C23 (stereo not given in full)', 'TGI', '> 100 µM'),
  ('COc1ccccc1C(C1=C(O)COC1=O)c1cc2c(cc1OC(C)=O)OCO2 (stereo not given)', 'TGI', '> 100 µM'),
  ('CCOC(=O)CC(=O)C(=O)NNC1=NCCCN1', 'TGI', '> 100 µM'),
  ('OCC1NCC(O)C(O)C1O (stereo not given)', 'TGI', '> 100 µM'),
  ('Cn1c(=O)[nH]c2[nH]c3ccccc3c2c1=O', 'TGI', '> 100 µM'),
  ('O=C1CC(CC(O)C(O)C(O)CO)CC(=O)N1 (stereo not given)', 'TGI', '> 100 µM'),
  ('Cn1ncc2c(/N=C/c3cccs3)[nH]c(=S)nc21', 'TGI', '> 72.2 µM'),
  ('COc1ccc(-c2nn(-c3cccc(NC(=O)Nc4ccc(Cl)c(C(F)(F)F)c4)c3)cc2-c2ccncc2)cc1Cl', 'TGI', '5.92 µM'),
  ('COC1=NC(NC2OCC(O)C(O)C2O)=C(NC(C)=O)CN1C (stereo not given)', 'TGI', '> 100 µM');

* * *

test system: NCI/ADR-RES ovarian; assay: NCI tumour cell line growth inhibition, 48 h
endpointName: TGI

INSERT INTO assay_data (compound, endpointvalue) VALUES
  ('C[C@]12CCC(=O)C=C1CC[C@@H]1[C@@H]2CC[C@]2(C)C(=O)[C@H](n3ccnc3)C[C@@H]12', '> 100 µM'),
  ('CC1=C2C(=O)OCC23C=COC3(C)O1 (stereo unspecified)', '> 100 µM'),
  ('CN(c1ccccc1)S(=O)(=O)c1ccccc1[N+](=O)[O-]', '> 100 µM'),
  ('COC(=O)C1=NN2c3ccccc3C(=O)OCCC2(C)C1 (stereo unspecified)', '> 100 µM'),
  ('COC(=O)C(=O)c1c2ccccc2n2ccc3c4ccccc4[nH]c3c12', '> 10 µM'),
  ('CCOP(=O)(OCC)C1CC(O)CN1OC(=O)C(C)(C)C (stereo unspecified)', '> 100 µM');

* * *

test system: HCT-15 colon; test: NCI tumour cell line growth inhibition, 48 h
endpointName: TGI

INSERT INTO results (compound, targetortestsystem, endpointname, endpointvalue) VALUES
  ('COC(=O)N/N=C(/CCN1CCCC1)CC(c1ccccc1)c1c(O)c2ccccc2oc1=O (stereo not drawn)', 'HCT-15 colon', 'TGI', '> 100 µM'),
  ('CCCN1CN(C(C(=O)N[C@@H]2C(=O)N3C2SC(C)(C)C3C(=O)O)c2ccccc2)CSC1=S (stereo partly drawn)', 'HCT-15 colon', 'TGI', '> 100 µM'),
  ('O=C(O)CC(Nc1ccccc1)C(=O)O (stereo not drawn)', 'HCT-15 colon', 'TGI', '> 100 µM');

* * *

Overview of recorded TGI for various compounds
system: DU-145 prostate; test: NCI tumour cell line growth inhibition, 48 h
endpointName: TGI

INSERT INTO results (compound, targetortestsystem, endpointname, endpointvalue) VALUES
  ('Nc1ccccc1N/C(=C\C(=O)C(Cl)(Cl)Cl)c1ccccc1', 'DU-145 prostate', 'TGI', '> 100 µM'),
  ('CN1CCC[C@@H]1CCO[C@](C)(c1ccccc1)c1ccc(Cl)cc1', 'DU-145 prostate', 'TGI', '25.2 µM'),
  ('O=C1OCC2(CO1)CC1C=CC2C1 (stereo not drawn)', 'DU-145 prostate', 'TGI', '> 100 µM'),
  ('Cc1cc2c(cc1Cl)SC(N/N=C(\N)c1ccc(Cl)cc1)=NS2(=O)=O', 'DU-145 prostate', 'TGI', '> 100 µM'),
  ('Cc1ccc(S(=O)(=O)OC2=C/C(=N\c3onc(C)c3C)c3ccccc3C2=O)cc1', 'DU-145 prostate', 'TGI', '> 100 µM'),
  ('Cn1c(=O)[nH]c2[nH]c3ccccc3c2c1=O', 'DU-145 prostate', 'TGI', '> 100 µM'),
  ('CC#CS(=O)(=O)c1ccccc1', 'DU-145 prostate', 'TGI', '10.2 µM'),
  ('C=C1C(=O)O[C@H]2[C@H]1CC/C(COC(=O)CCCCCCCCC(=O)OC/C1=C/CC[C@@]3(C)O[C@H]3[C@H]3OC(=O)C(=C)[C@@H]3CC1)=C\CC[C@@]1(C)O[C@@H]21', 'DU-145 prostate', 'TGI', '4.2 µM');

* * *

test system: HOP-62 NSCLC; assay: NCI tumour cell line growth inhibition, 48 h
endpointName: TGI

INSERT INTO assay_data (compound, endpointvalue) VALUES
  ('CC(NC(=O)C(N)Cc1ccc(O)cn1)C(=O)O (stereo not drawn)', '> 100 µM'),
  ('COC(=O)[C@@H]1C[C@H]([Se]c2ccccc2)CN1S(=O)(=O)c1ccc(C)cc1', '> 100 µM'),
  ('CCOC(=O)C(Cc1ccccc1)NC(=O)c1ccc(N=NN(C)C)cc1 (stereo not drawn)', '> 100 µM');

* * *

system: HS 578T breast; assay: NCI tumour cell line growth inhibition, 48 h
endpointName: TGI

INSERT INTO assay_data (molecule, endpointvalue) VALUES
  ('C=C1C[C@@H](O)[C@@H](Br)C(C)(C)[C@]12CCC(C)(Cl)C(Br)C2 (stereo partly specified)', '> 100 µM'),
  ('Cc1cc2c(cc1Cl)SC(N/N=C(\N)c1ccc(Cl)cc1)=NS2(=O)=O', '> 100 µM'),
  ('O=S1(=O)OC(c2ccc(O)cc2)(c2ccc(O)cc2)c2ccccc21', '> 100 µM'),
  ('ClCc1ccc(-c2ccc(Cn3cnc4c(Cl)nc(Cl)nc43)cc2)cc1', '11.1 µM'),
  ('O=S(=O)(N=S(c1ccc(Cl)cc1)c1ccc(Cl)cc1)c1ccccc1', '> 100 µM'),
  ('S=c1nc2[nH]ncc2c(N/N=C/c2ccccc2)[nH]1', '> 100 µM'),
  ('Cc1cc(O)c(C(c2cccnc2)c2c(O)cc(C)[nH]c2=O)c(=O)[nH]1', '> 100 µM'),
  ('CS(=O)(=O)c1nc(-c2cc3c(c(S(C)(=O)=O)n2)CCCC3)cc2c1CCCC2', '> 33 µM'),
  ('NNC(=O)c1ccccc1Nc1ccccc1C(=O)NN', '> 100 µM'),
  ('CC1(C)CC[C@]2(C(=O)O)CC[C@]3(C)C(=CC[C@@H]4[C@@]5(C)C[C@H](O)[C@H](O)[C@@](C)(CO)C5=CC[C@]43C)[C@@H]2C1', '> 100 µM'),
  ('COC(=O)c1ccc(N=NN(C)COc2ccc(C#N)cc2)cc1', '> 100 µM'),
  ('COC1=NC(NC2OCC(O)C(O)C2O)=C(NC(C)=O)CN1C (stereo unspecified)', '> 100 µM'),
  ('CN1CCC[C@@H]1CCO[C@](C)(c1ccccc1)c1ccc(Cl)cc1', '36 µM'),
  ('OC(c1cccnc1)C(F)(F)c1nc2ccccc2o1 (stereo unspecified)', '> 100 µM'),
  ('COc1ccc(-c2c(C#N)c(-c3ccc(C)cc3)n(NS(=O)(=O)c3ccccc3)c(=O)c2C#N)cc1', '> 100 µM'),
  ('CC1=NN(C(=O)CC(=O)Nc2ccccc2Cl)C(=O)C1N=Nc1ccc(C(=O)O)cc1 (stereo unspecified)', '> 100 µM');
